Values were extracted from patent US7118895B2.

- Tested on: β-Glucosidase derived from almond
- test_details: Reactivity toward various isoflavone glycosides (HPLC)
- Format: biochemical
- Design: unit not given here
- condition_label: Reaction time 1 h; 55 °C, pH 4.0
experimental_endpoint: aglycon
Kindly provide the number alone.

For orientation, consider the following solved cases.
{"smiles_str": "COc1cc2c(=O)c(-c3ccc(O)cc3)coc2cc1O[C@@H]1O[C@H](COC(C)=O)[C@@H](O)[C@H](O)[C@H]1O", "reported": 0}
{"smiles_str": "O=c1c(-c2ccc(O)cc2)coc2cc(O[C@@H]3O[C@H](CO)[C@@H](O)[C@H](O)[C@H]3O)cc(O)c12", "reported": 9.4}
{"smiles_str": "COc1cc2c(=O)c(-c3ccc(O)cc3)coc2cc1O[C@@H]1O[C@H](COC(=O)CC(=O)O)[C@@H](O)[C@H](O)[C@H]1O", "reported": 0}

Let us examine a further case.
Exercise: State the recorded aglycon for this entry: O=c1c(-c2ccc(O)cc2)coc2cc(O[C@@H]3O[C@H](CO)[C@@H](O)[C@H](O)[C@H]3O)ccc12
Key: 9.1

----------
- Tested on: Crude diglycosidase
- test_details: Examination of pH in the conversion into isoflavone aglycons by diglycosidase using soybean materials
- Type: biochemical, Penicillium multicolor IAM7153
- condition_label: pH3.7; heat treatment of enzyme: no; reaction time 0 h
experimental_endpoint: Decomposition efficiency of glycitin family in concentrated soybean protein
Write down the value, and be sure its unit follows.

Exercise: Reported Decomposition efficiency of glycitin family in concentrated soybean protein for Crude diglycosidase, given COc1cc2c(=O)c(-c3ccc(O)cc3)coc2cc1O[C@@H]1O[C@H](COC(C)=O)[C@@H](O)[C@H](O)[C@H]1O ?
Key: 36.1%

Exercise: Next entry: COc1cc2c(=O)c(-c3ccc(O)cc3)coc2cc1O[C@@H]1O[C@H](CO)[C@@H](O)[C@H](O)[C@H]1O
Key: 52.4%

Exercise: Moving on to COc1cc2c(=O)c(-c3ccc(O)cc3)coc2cc1O
Key: 11.1%

Exercise: # iterate: COc1cc2c(=O)c(-c3ccc(O)cc3)coc2cc1O[C@@H]1O[C@H](COC(=O)CC(=O)O)[C@@H](O)[C@H](O)[C@H]1O
Key: 0.4%

----------
- Test system: Crude diglycosidase
- test_details: Examination of temperature in the conversion into isoflavone aglycons by diglycosidase using soybean materials
- Assay type: biochemical, Penicillium multicolor IAM7153
- Parameters: concentration or dose not given beside the values
- condition_label: 65° C., heat treatment of enzyme no, reaction time 1 h
- Protocol: Into 400 μL of 20 mM acetate buffer of pH 4.0 was suspended 50 mg of each of various soybean materials (roasted soy flour (manufactured by Fuji Shokuryo K.K.), soymilk (manufactured by Gitoh Shokuhin K.K.), defatted soybean (manufactured by Fuji Seiyu K.K.), concentrated soybean protein (manufactured by Fuji Seiyu K.K.)), whereby a substrate solution was prepared. Crude diglycosidase was diluted with 20 mM acetate buffer of pH 4.0 to be the glycosidase activity of 1.88 AU/mL. […]
experimental_endpoint: Decomposition efficiency of daidzin family in defatted soybean (%)
Dear colleague, please return just the value in %, with no unit written.

{"compound": "O=c1c(-c2ccc(O)cc2)coc2cc(O)ccc12 [daidzein]", "value_units": "%", "reported": 55.3}

// next entry
Exercise: Returns the measured Decomposition efficiency of daidzin family in defatted soybean for the input compound. Input: O=C(O)CC(=O)OC[C@H]1O[C@@H](Oc2ccc3c(=O)c(-c4ccc(O)cc4)coc3c2)[C@H](O)[C@@H](O)[C@@H]1O [malonyldaidzin, 6″-O-malonyldaidzin]
Key: 44.7

----------
- Tested on: Crude diglycosidase
- test_details: Examination of temperature in the conversion into isoflavone aglycons by diglycosidase using soybean materials
- Format: biochemical, Penicillium multicolor IAM7153
- Set-up: concentration or dose not given beside the values
- condition_label: 55° C., heat treatment of enzyme no, reaction time 6 h
experimental_endpoint: Decomposition efficiency of daidzin family in defatted soybean (%)
Give a bare numeral; the unit % is implied.

Exercise: Which value of Decomposition efficiency of daidzin family in defatted soybean has been reported for O=C(O)CC(=O)OC[C@H]1O[C@@H](Oc2ccc3c(=O)c(-c4ccc(O)cc4)coc3c2)[C@H](O)[C@@H](O)[C@@H]1O in the records?
Key: 40.3

Exercise: Note, next up: O=c1c(-c2ccc(O)cc2)coc2cc(O)ccc12
Key: 59.7

----------
- Tested on: β-Glucosidase derived from A. niger
- test_details: Reactivity toward various isoflavone glycosides (HPLC)
- Type: biochemical, Aspergillus niger
- Set-up: unit not given here
- condition_label: Reaction time 1 h; 55 °C, pH 4.0
Overview of reported aglycon across a group of compounds:
// response body must contain only the number

Some compounds with recorded aglycon:
{"smiles_str": "O=c1c(-c2ccc(O)cc2)coc2cc(O[C@@H]3O[C@H](CO)[C@@H](O)[C@H](O)[C@H]3O)cc(O)c12", "aglycon": 100}
{"smiles_str": "O=C(O)CC(=O)OC[C@H]1O[C@@H](Oc2cc(O)c3c(=O)c(-c4ccc(O)cc4)coc3c2)[C@H](O)[C@@H](O)[C@@H]1O", "aglycon": 3.1}

Then this compound:
Exercise: Value lookup for aglycon; key = O=C(O)CC(=O)OC[C@H]1O[C@@H](Oc2ccc3c(=O)c(-c4ccc(O)cc4)coc3c2)[C@H](O)[C@@H](O)[C@@H]1O
Key: 4.5

----------
- System: Crude diglycosidase
- test_details: Examination of pH in the conversion into isoflavone aglycons by diglycosidase using soybean materials
- Format: biochemical, Penicillium multicolor IAM7153
- condition_label: pH3.7; heat treatment of enzyme: no; reaction time 1 h
Measured Decomposition efficiency of glycitin family in concentrated soybean protein, listed per entry for reference.
Value expressed in %; do not type the unit.

{"smiles_str": "COc1cc2c(=O)c(-c3ccc(O)cc3)coc2cc1O[C@@H]1O[C@H](COC(C)=O)[C@@H](O)[C@H](O)[C@H]1O", "reported": 32.9}

Exercise: Quick check: Decomposition efficiency of glycitin family in concentrated soybean protein of COc1cc2c(=O)c(-c3ccc(O)cc3)coc2cc1O[C@@H]1O[C@H](COC(=O)CC(=O)O)[C@@H](O)[C@H](O)[C@H]1O ?
Key: 0.5

Exercise: Next record, please: COc1cc2c(=O)c(-c3ccc(O)cc3)coc2cc1O
Key: 66.7

----------
- System: Crude diglycosidase
- test_details: Examination of substrate concentration in the conversion into isoflavone aglycons by diglycosidase using soybean materials;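 also: percent of the isoflavone family total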
- Type: biochemical, Penicillium multicolor IAM7153
- condition_label: roasted soy flour, substrate concentration 5%, heat treatment of enzyme no, reaction time 6 h
experimental_endpoint: Decomposition efficiency: ratio of each glycoside/aglycon within its isoflavone family

{"smiles_str": "O=C(O)CC(=O)OC[C@H]1O[C@@H](Oc2cc(O)c3c(=O)c(-c4ccc(O)cc4)coc3c2)[C@H](O)[C@@H](O)[C@@H]1O", "reported": "not detected"}
{"smiles_str": "O=C(O)CC(=O)OC[C@H]1O[C@@H](Oc2ccc3c(=O)c(-c4ccc(O)cc4)coc3c2)[C@H](O)[C@@H](O)[C@@H]1O", "reported": "not detected"}
{"smiles_str": "COc1cc2c(=O)c(-c3ccc(O)cc3)coc2cc1O", "reported": "100.0%"}
{"smiles_str": "COc1cc2c(=O)c(-c3ccc(O)cc3)coc2cc1O[C@@H]1O[C@H](COC(C)=O)[C@@H](O)[C@H](O)[C@H]1O", "reported": "not detected"}

Exercise: Request - read-out Decomposition efficiency: ratio of each glycoside/aglycon within its isoflavone family | tested on Crude diglycosidase | molecule COc1cc2c(=O)c(-c3ccc(O)cc3)coc2cc1O[C@@H]1O[C@H](CO)[C@@H](O)[C@H](O)[C@H]1O
Key: not detected

Exercise: Next molecule up: O=c1c(-c2ccc(O)cc2)coc2cc(O[C@@H]3O[C@H](CO)[C@@H](O)[C@H](O)[C@H]3O)ccc12
Key: not detected

Exercise: And the next one, O=c1c(-c2ccc(O)cc2)coc2cc(O[C@@H]3O[C@H](CO)[C@@H](O)[C@H](O)[C@H]3O)cc(O)c12 ?
Key: not detected

----------
- Tested on: Crude diglycosidase
- test_details: Examination of pH in the conversion into isoflavone aglycons by diglycosidase using soybean materials
- Format: biochemical, Penicillium multicolor IAM7153
- condition_label: pH4.8, heat treatment of enzyme no, reaction time 6 h, 55° C.
experimental_endpoint: Decomposition efficiency of glycitin family in soymilk
Give only the figure.

Exercise: Which value of Decomposition efficiency of glycitin family in soymilk has been reported for COc1cc2c(=O)c(-c3ccc(O)cc3)coc2cc1O[C@@H]1O[C@H](COC(=O)CC(=O)O)[C@@H](O)[C@H](O)[C@H]1O in the records?
Key: 8.3

Exercise: One more molecule: COc1cc2c(=O)c(-c3ccc(O)cc3)coc2cc1O
Key: 91.7

----------
- Test system: Crude diglycosidase
- test_details: Examination of substrate concentration in the conversion into isoflavone aglycons by diglycosidase using soybean materials;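 also: percent of the isoflavone family total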
- Assay type: biochemical, Penicillium multicolor IAM7153
- condition_label: concentrated soybean protein, substrate concentration 5%, heat treatment of enzyme yes, reaction time 6 h
experimental_endpoint: Decomposition efficiency: ratio of each glycoside/aglycon within its isoflavone family (%)
Entry rule: numbers only, all in %.

Below, 2 molecules whose answers are already recorded.
{"molecule": "CC(=O)OC[C@H]1O[C@@H](Oc2ccc3c(=O)c(-c4ccc(O)cc4)coc3c2)[C@H](O)[C@@H](O)[C@@H]1O [acetly-daidzin]", "reported": 43.0}
{"molecule": "COc1cc2c(=O)c(-c3ccc(O)cc3)coc2cc1O [glycitein]", "reported": 11.3}

Exercise: Record request: Decomposition efficiency: ratio of each glycoside/aglycon within its isoflavone family value, item O=c1c(-c2ccc(O)cc2)coc2cc(O[C@@H]3O[C@H](CO)[C@@H](O)[C@H](O)[C@H]3O)cc(O)c12 [genistin]
Key: 52.2
